- test-method-notes: Bioavailability / pharmacokinetic study in dogs
- Format: in vivo, Canis familiaris
- experimental-conditions: both sexes, blood; dog, IV, 50 mg/kg DHAdC
measurement-type: AUC(0-inf)

Task: Recorded AUC(0-inf) of NC1=NC(=O)N([C@H]2C[C@H](O)[C@@H](CO)O2)CN1 [DHAdC, 5,6-dihydro-5-aza-2′-deoxycytidine] , please.
Result: 156 µg·h/mL

* * *

- test-method-notes: Bioavailability / pharmacokinetic study in dogs
- Format: in vivo, Canis familiaris
- experimental-conditions: both sexes, blood; dog, IV, 50 mg/kg DHAdC; read-out: Cmax
measurement-type: Cmax
Number first, unit second: that is the form wanted.

Task: Recorded Cmax of NC1=NC(=O)N([C@H]2C[C@H](O)[C@@H](CO)O2)CN1 [DHAdC, 5,6-dihydro-5-aza-2′-deoxycytidine] , please.
Result: 76.3 µg/mL

Data origin, for the record: patent US7589092B2
